The reported numbers originate from patent US6750228B1.

# ASSAY SYSTEM: MMP-2 (Homo sapiens, UniProt P08253)
# Construct: made in house; provided by Dr. Gregory Goldberg, Washington University
# Sequence (P08253 110-660): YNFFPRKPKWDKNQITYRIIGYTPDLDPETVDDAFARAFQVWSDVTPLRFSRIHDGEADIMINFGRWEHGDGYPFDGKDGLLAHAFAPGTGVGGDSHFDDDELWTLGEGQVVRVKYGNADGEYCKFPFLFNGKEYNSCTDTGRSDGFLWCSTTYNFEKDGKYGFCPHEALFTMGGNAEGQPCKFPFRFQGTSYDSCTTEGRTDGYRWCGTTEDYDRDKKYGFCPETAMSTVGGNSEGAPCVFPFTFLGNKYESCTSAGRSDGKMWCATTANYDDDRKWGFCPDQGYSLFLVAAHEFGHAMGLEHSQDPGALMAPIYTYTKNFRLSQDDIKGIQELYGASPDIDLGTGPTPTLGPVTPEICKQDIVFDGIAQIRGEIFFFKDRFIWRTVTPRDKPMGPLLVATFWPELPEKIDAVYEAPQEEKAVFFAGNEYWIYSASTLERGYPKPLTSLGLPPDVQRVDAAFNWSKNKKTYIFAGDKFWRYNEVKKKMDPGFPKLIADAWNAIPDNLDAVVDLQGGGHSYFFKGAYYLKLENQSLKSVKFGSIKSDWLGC
# ASSAY INFO: biochemical
# CONDITION LABEL: recombinant human MMP-2, MCA peptide substrate 4 μM, pH 7.5, room temperature; read-out: MMP-2 IC50
pIC50: −log10 of the molar value. Structures can show the parent of a compound that is named as a salt.
# pIC50 >= 6 gives MET, anything below gives NOT MET

Example entries and their recorded answers appear below.
[[record]]
molecule = "CN(C)c1cccc2c(S(=O)(=O)N3CC(Oc4ccc(S(=O)(=O)C5(C(=O)NO)CCOCC5)cc4)C3)cccc12"
discrete_label = "NOT MET"

[[record]]
molecule = "O=C(NO)C1(S(=O)(=O)c2ccc(N3CCC(C(O)c4ccccc4)CC3)cc2)CCOCC1 (stereo not drawn)"
discrete_label = "MET"

[[record]]
molecule = "CC1CC(C)CN(C(=O)C2CCN(c3ccc(S(=O)(=O)C4(C(=O)NO)CCN(C(=O)CN(C)CCN(C)C)CC4)cc3)CC2)C1 (stereo not drawn)"
discrete_label = "NOT MET"

[[record]]
molecule = "CCN(Cc1ccncc1)C(=O)C1CCN(c2ccc(S(=O)(=O)C3(C(=O)NO)CCOCC3)cc2)CC1"
discrete_label = "NOT MET"

[[record]]
molecule = "O=C(NO)C1(S(=O)(=O)c2ccc(Oc3ccc(OC(F)(F)F)cc3)cc2)CCN(CCn2ccnc2)CC1 [Example 261, Dihydrochloride]"
discrete_label = "MET"


input: Textbook exercise: given the entry CCOC(=O)C1CCN(CC(=O)N2CCC(C(=O)NO)(S(=O)(=O)c3ccc(N4CCC(C(=O)N5CC(C)CC(C)C5)CC4)cc3)CC2)CC1 (stereo not drawn) , state whether its pIC50 is greater than or equal to 6.
output: NOT MET

input: Let us now turn to `O=C(NO)C1(S(=O)(=O)c2ccc(N3CCC(OCc4ccc(F)cc4F)CC3)cc2)CCOCC1`
output: MET

input: Thanks! And `COCCN1CCC(C(=O)NO)(S(=O)(=O)c2ccc(N3CCC(OCc4ccc(F)c(C(F)(F)F)c4)CC3)cc2)CC1` ?
output: NOT MET

input: Okay, and O=C(NO)C1(S(=O)(=O)c2ccc(OC3CCC(OCc4cccc(OC(F)(F)F)c4)C3)cc2)CCOCC1 (stereo not drawn) ?
output: MET

input: Same again, this time with `CCCOC1CCN(c2ccc(S(=O)(=O)C3(C(=O)NO)CCOCC3)cc2)CC1`
output: MET

###

# ASSAY SYSTEM: MMP-13 (Homo sapiens, UniProt P45452)
# Construct: made in house; host or cells: baculovirus / insect cells
# ASSAY INFO: biochemical
# CONDITION LABEL: recombinant human MMP-13, MCA peptide substrate 4 μM, pH 7.5, room temperature; read-out: MMP-13 IC50
Counter-ions that a name gives are not always drawn.
// classify: if (IC50 < 30 nM) criterion met else criterion not met

Solved cases (5 shown):
[[record]]
molecule = "Cc1ccc(N2CCC(C(=O)NO)(S(=O)(=O)c3ccc(Oc4ccc(OC(F)(F)F)cc4)cc3)CC2)cc1 [Example 229, Monohydrochloride]"
discrete_label = "criterion met"

[[record]]
molecule = "O=C(NO)C1(S(=O)(=O)c2ccc(Oc3ccc(OC(F)(F)F)cc3)cc2)CCN(CCn2ccnc2)CC1 [Example 261, Dihydrochloride]"
discrete_label = "criterion met"

[[record]]
molecule = "O=C(Nc1ccc(C(F)(F)F)cc1)N1CCC(C(=O)NO)(S(=O)(=O)c2ccc(Oc3ccc(C(F)(F)F)cc3)cc2)CC1 [Example 141]"
discrete_label = "criterion met"

[[record]]
molecule = "O=C(c1ccco1)N1CCC(C(=O)NO)(S(=O)(=O)c2ccc(N3CCC(OCc4ccc(F)c(C(F)(F)F)c4)CC3)cc2)CC1 [Example 433]"
discrete_label = "criterion not met"

[[record]]
molecule = "O=C(NO)C1(S(=O)(=O)c2ccc(N3CCN(C4CCCC4)CC3)cc2)CCOCC1 [Example 488]"
discrete_label = "criterion not met"


Below: the item to evaluate.
input: IC50 under 30 nM? Item: O=C(NO)C1(S(=O)(=O)c2ccc(N3CCN(c4ccccc4)CC3)cc2)CCN(C2CC2)CC1 [Example 369]
output: criterion met

###

Below, each of the compounds is paired with its reported IC50 value.
# ASSAY SYSTEM: MMP-13 (Homo sapiens, UniProt P45452)
# Construct: made in house; host or cells: baculovirus / insect cells
# ASSAY INFO: biochemical
# CONDITION LABEL: recombinant human MMP-13, MCA peptide substrate 4 μM, pH 7.5, room temperature; read-out: MMP-13 IC50
Express the result in nM but write the number alone.

Below, 3 compounds whose answers are already recorded.
[[record]]
compound = "O=C(NO)C1(S(=O)(=O)c2ccc(N3CCC(Oc4ccc([N+](=O)[O-])cc4)CC3)cc2)CCOCC1 [Example 546]"
endpoint_value = 2.7

[[record]]
compound = "Cc1cccc(C(=O)C2CCN(c3ccc(S(=O)(=O)C4(C(=O)NO)CCOCC4)cc3)CC2)c1 [Example 653]"
endpoint_value = 0.8

[[record]]
compound = "CN(Cc1cccnc1)C(=O)C1CCN(c2ccc(S(=O)(=O)C3(C(=O)NO)CCOCC3)cc2)CC1 [Example 497]"
endpoint_value = 50


input: // lookup IC50 for CCCCOC1CCN(c2ccc(S(=O)(=O)C3(C(=O)NO)CCN(C(=O)OC(C)(C)C)CC3)cc2)CC1 [Example 442]
output: 10

###

// values below are reported log10 of IC50
# ASSAY SYSTEM: MMP-13 (Homo sapiens, UniProt P45452)
# Construct: made in house; host or cells: baculovirus / insect cells
# ASSAY INFO: biochemical
# CONDITION LABEL: read-out: MMP-13 IC50
Heads up: the numbers are on a log10 scale; they represent IC50 in µM.

Solved entries (count: 3):
[[record]]
compound = "O=C(C1CCN(c2ccc(S(=O)(=O)C3(C(=O)NO)CCOCC3)cc2)CC1)N1CCN(c2ncc(C(F)(F)F)cc2Cl)CC1 [Example 41]"
assay_system = "MMP-13 (Homo sapiens, UniProt P45452)"
endpoint_value = -1.15

[[record]]
compound = "CC1CC(C)CN(C(=O)C2CCN(c3ccc(S(=O)(=O)C4(C(=O)NO)CCN(C(=O)OCC5c6ccccc6-c6ccccc65)CC4)cc3)CC2)C1 (stereo not drawn) [Example 274]"
assay_system = "MMP-13 (Homo sapiens, UniProt P45452)"
endpoint_value = -0.80

[[record]]
compound = "C[C@H]1C[C@H](C)CN(C(=O)C2CCN(c3ccc(S(=O)(=O)C4(C(=O)NO)CCN(C(=O)CCl)CC4)cc3)CC2)C1 [Example 275]"
assay_system = "MMP-13 (Homo sapiens, UniProt P45452)"
endpoint_value = -1.15


input: Query for MMP-13 (Homo sapiens, UniProt P45452): what log10 of IC50 does the record show for O=C(C1CCN(c2ccc(S(=O)(=O)C3(C(=O)NO)CCOCC3)cc2)CC1)N1CCN(c2nccc(C(F)(F)F)n2)CC1 [Example 49] ?
output: -1.70

input: And what about the compound O=C(C1CCN(c2ccc(S(=O)(=O)C3(C(=O)NO)CCOCC3)cc2)CC1)N1CCN(c2ccc(F)cc2)CC1 [Example 25] ?
output: -2.22

input: What would you report for O=C(C1CCN(c2ccc(S(=O)(=O)C3(C(=O)NO)CCOCC3)cc2)CC1)N1CCN(c2ncccc2C(F)(F)F)CC1 [Example 33] ?
output: -1.70

input: C[C@H]1C[C@H](C)CN(C(=O)C2CCN(c3ccc(S(=O)(=O)C4(C(=O)NO)CCN(C(=O)OC(C)(C)C)CC4)cc3)CC2)C1 (relative stereo) [Example 239] ?
output: -2.05

input: Ok, now CC1CCCN(C(=O)C2CCN(c3ccc(S(=O)(=O)C4(C(=O)NO)CCOCC4)cc3)CC2)C1 (stereo not drawn) [Example 47]
output: -1.94

###

# ASSAY SYSTEM: MMP-2 (Homo sapiens, UniProt P08253)
# Construct: made in house; provided by Dr. Gregory Goldberg, Washington University
# ASSAY INFO: biochemical
# CONDITION LABEL: recombinant human MMP-2, MCA peptide substrate 4 μM, pH 7.5, room temperature; read-out: MMP-2 IC50
Reported pIC50 values are given for each entry in this list.
Bear in mind: pIC50 is minus log10 of a mol/L concentration; give just that figure.

A selection of reference data follows.
[[record]]
compound = "O=C(NO)C1(S(=O)(=O)c2ccc(N3CCC(c4ccccc4C(F)(F)F)CC3)cc2)CCOCC1 [Example 207]"
attribute_measured = "pIC50"
endpoint_value = 6.05

[[record]]
compound = "CNC(=S)N1CCC(C(=O)NO)(S(=O)(=O)c2ccc(Oc3ccc(OC(F)(F)F)cc3)cc2)CC1 [Example 198]"
attribute_measured = "pIC50"
endpoint_value = 9.60

[[record]]
compound = "O=C(NO)C1(S(=O)(=O)c2ccc(N3CC[C@@H](OCc4ccc(F)cc4)C3)cc2)CCOCC1 [Example 531]"
attribute_measured = "pIC50"
endpoint_value = 8.00


We next turn to a different compound, shown below.
input: Which value of pIC50 has been reported for O=C(Nc1ccc(C(F)(F)F)cc1)N1CCC(C(=O)NO)(S(=O)(=O)c2ccc(Oc3ccc(C(F)(F)F)cc3)cc2)CC1 [Example 141] in the records?
output: 8.05
